The entries below come with measured % Inhibition Skp2 @ (100 µM) values attached.
- Target under test: Skp2 (UniProt Q13309 1-424, limits assumed)
- Sequence (Q13309 whole entry): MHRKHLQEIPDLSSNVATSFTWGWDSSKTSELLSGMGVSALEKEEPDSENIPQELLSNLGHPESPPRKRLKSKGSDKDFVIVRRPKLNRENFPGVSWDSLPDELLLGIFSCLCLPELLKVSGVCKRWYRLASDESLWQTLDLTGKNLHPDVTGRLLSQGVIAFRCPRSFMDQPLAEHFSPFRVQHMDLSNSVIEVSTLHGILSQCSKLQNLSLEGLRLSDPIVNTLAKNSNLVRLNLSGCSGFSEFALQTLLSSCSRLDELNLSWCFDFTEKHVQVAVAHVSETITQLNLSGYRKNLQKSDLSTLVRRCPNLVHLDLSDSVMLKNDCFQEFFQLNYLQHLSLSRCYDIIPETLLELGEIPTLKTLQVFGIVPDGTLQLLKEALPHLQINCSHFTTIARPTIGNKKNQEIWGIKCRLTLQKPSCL
- Assay notes: cell-based or functional assay
Starred links: 1 amine or outer side, 2 acyl side, 3 side chain; linkers in the order of their positions; H or OH if unused. Non-standard residues stand in square brackets, D forms with d. No end group written: not given here. *: point of attachment. Phe(4-NO2) = N[C@@H](Cc1ccc([N+](=O)[O-])cc1)C(=O)O; E(Me) = COC(=O)CC[C@H](N[*:1])C(=O)[*:2]; Phe(3-Cl) = N[C@@H](Cc1cccc(Cl)c1)C(=O)O; Phe(3-F) = N[C@@H](Cc1cccc(F)c1)C(=O)O; Phe(2-F) = N[C@@H](Cc1ccccc1F)C(=O)O; Maleoyl = O=C(/C=C\C(=O)[*:2])[*:1]; pS = N[C@@H](COP(=O)(O)O)C(=O)O; Suc = O=C(CCC(=O)[*:2])[*:1]; Tos = Cc1ccc(S(=O)(=O)*)cc1; Bz = O=C(c1ccccc1)*
Result type: % Inhibition Skp2 @ (100 µM) (%)

| Binder | Value reported |
| --- | --- |
| Tos-[dD]EG[Phe(3-Cl)]W[E(Me)]-NH2 (also called UBP033) [Ts-dEGF(3Cl)WE(Me)-NH2] | 10 |
| Suc-EG[Phe(2-F)][Phe(4-NO2)]E-NH2 (SMILES NC(=O)[C@H](CCC(=O)O)NC(=O)[C@H](Cc1ccc([N+](=O)[O-])cc1)NC(=O)[C@H](Cc1ccccc1F)NC(=O)CNC(=O)[C@H](CCC(=O)O)NC(=O)CCC(=O)O) [Suc-EGF(2F)F(4NO2)E-NH2] | 11 |
| Maleoyl-EG[Phe(3-F)][Phe(4-NO2)]E-NH2 (SMILES NC(=O)[C@H](CCC(=O)O)NC(=O)[C@H](Cc1ccc([N+](=O)[O-])cc1)NC(=O)[C@H](Cc1cccc(F)c1)NC(=O)CNC(=O)[C@H](CCC(=O)O)NC(=O)/C=C\C(=O)O) [Mal-EGF(3F)F(4NO2)E-NH2] | 14 |
| Suc-EGFFE-NH2 (SMILES NC(=O)[C@H](CCC(=O)O)NC(=O)[C@H](Cc1ccccc1)NC(=O)[C@H](Cc1ccccc1)NC(=O)CNC(=O)[C@H](CCC(=O)O)NC(=O)CCC(=O)O, also called UBP002) [Suc-EGFFE-NH2] | 0 |
| D[pS]GIFE-NH2 (N-terminus assumed; SMILES CC[C@H](C)[C@H](NC(=O)CNC(=O)[C@H](COP(=O)(O)O)NC(=O)[C@@H](N)CC(=O)O)C(=O)N[C@@H](Cc1ccccc1)C(=O)N[C@@H](CCC(=O)O)C(N)=O) [DpSGIFE-NH2] | 13 |
| QGXXE (N-terminal Suc (succinyl) cap; position 3 F(3F); position 4 F(4NO2); C-terminal amide) [Suc-QGF(3F)F(4NO2)E-NH2] | 0 |
| Bz-[dD]EG[Phe(3-F)]WE-NH2 (also called UBP018) [Bz-dEGF(3F)WE-NH2] | 0 |
